Test system: INSR
RUN_PARAMETERS: concentration: 1 μM,replicates: in singlicate; n = 1;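 also: KINOMEscan kinase panel screen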
Listing: %Inh of selected molecules
READOUT_NAME: %Inh (%)

In [3]: df
Out[3]:
                                   molecule  readout_name  result_unit  reported_value
0  CN1CCN(CCCNc2nccc(-c3c(-c4ccc(F)cc4)nn4cc(C(N)=O)ccc34)n2)CC1          %Inh            %               2
1     O=C(Nc1n[nH]c2cc(-c3ccco3)ccc12)C1CC1          %Inh            %               2
2  C[C@@H]1CNc2c(sc3ccc4nc(-c5ccc(O)cc5)ccc4c23)C(=O)N1          %Inh            %               7
3  COc1cccc(CNC(=O)NC2CCN(c3ccnc(Nc4cc(OC)c(OC)c(OC)c4)n3)C2)c1 (stereo not drawn)          %Inh            %               0
4  O=C(NCC1CC1)c1ccc(-c2cc(C(=O)NC3CC3)ccc2F)cc1          %Inh            %               0
5    CS(=O)(=O)Nc1ccc(-c2ccnc3[nH]ccc23)cc1          %Inh            %               0
6                 CCCC(=O)Nc1n[nH]c2ncccc12          %Inh            %               0
7  C[C@@H]1CNc2c(sc3ccc4nc(-c5ccncc5)ccc4c23)C(=O)N1          %Inh            %               0
8  CC(C(=O)NC1CCN(c2ccnc(Nc3ccc(F)cc3)n2)C1)c1ccc(Cl)cc1 (stereo not drawn)          %Inh            %               0

---

Test system: MAP4K2
RUN_PARAMETERS: concentration: 1 μM,replicates: in singlicate; n = 1
READOUT_NAME: %Inh (%)

In [3]: df
Out[3]:
                                   molecule  test_target  reported_value
0  COc1cc2nccc(Nc3ccc(Oc4ccccc4)cc3)c2cc1OC.Cl [GI261656]       MAP4K2               0
1  Cc1ccc(C(=O)Nc2ccc(Oc3ccc4nc(NC(=O)C5CC5)cn4c3)c(F)c2)c(=O)n1-c1ccccc1       MAP4K2               0
2  COc1cccc(CNC(=O)NC2CCN(c3ccnc(Nc4cc(OC)c(OC)c(OC)c4)n3)C2)c1 (stereo not drawn) [GSK1379765]       MAP4K2               0
3  NC(=O)c1ccc(-c2cc3ncnc(SCC(=O)O)c3s2)cc1       MAP4K2               0
4  Cc1ccc2c(-c3ccnc(Nc4ccc(C(F)(F)F)cc4)n3)cnn2n1 [GW819776]       MAP4K2               0
5  CC(C(=O)NC1CCN(c2ccnc(Nc3ccc(F)cc3)n2)C1)c1ccc(Cl)cc1 (stereo not drawn) [GSK1379713]       MAP4K2               0
6    O=C(Nc1ccccc1)c1cccc(Oc2ccc3nccn3n2)c1       MAP4K2               2
7  Nc1nccc(-c2ccc3c(N)n[nH]c3c2)n1 [GSK1034945]       MAP4K2              67
8  CCNCC(Cc1ccccc1)NC(=O)c1cc(Br)c(-c2ccnc3[nH]ccc23)s1.Cl.Cl (stereo not drawn) [GSK1383280]       MAP4K2              27
